Let's look at some compounds and their measured Ki.
biological target: Human α2δ-1 subunit of Cav2.2 calcium channel (Homo sapiens, UniProt P54289); assay: Human α2δ-1 subunit of Cav2.2 calcium channel assay ([3H]-gabapentin binding); conditions: binding to the α2δ-1 subunit of voltage-gated calcium channels expressed as Ki; + also covers inhibition between 1% and 50%
Sequence (P54289 25-1103): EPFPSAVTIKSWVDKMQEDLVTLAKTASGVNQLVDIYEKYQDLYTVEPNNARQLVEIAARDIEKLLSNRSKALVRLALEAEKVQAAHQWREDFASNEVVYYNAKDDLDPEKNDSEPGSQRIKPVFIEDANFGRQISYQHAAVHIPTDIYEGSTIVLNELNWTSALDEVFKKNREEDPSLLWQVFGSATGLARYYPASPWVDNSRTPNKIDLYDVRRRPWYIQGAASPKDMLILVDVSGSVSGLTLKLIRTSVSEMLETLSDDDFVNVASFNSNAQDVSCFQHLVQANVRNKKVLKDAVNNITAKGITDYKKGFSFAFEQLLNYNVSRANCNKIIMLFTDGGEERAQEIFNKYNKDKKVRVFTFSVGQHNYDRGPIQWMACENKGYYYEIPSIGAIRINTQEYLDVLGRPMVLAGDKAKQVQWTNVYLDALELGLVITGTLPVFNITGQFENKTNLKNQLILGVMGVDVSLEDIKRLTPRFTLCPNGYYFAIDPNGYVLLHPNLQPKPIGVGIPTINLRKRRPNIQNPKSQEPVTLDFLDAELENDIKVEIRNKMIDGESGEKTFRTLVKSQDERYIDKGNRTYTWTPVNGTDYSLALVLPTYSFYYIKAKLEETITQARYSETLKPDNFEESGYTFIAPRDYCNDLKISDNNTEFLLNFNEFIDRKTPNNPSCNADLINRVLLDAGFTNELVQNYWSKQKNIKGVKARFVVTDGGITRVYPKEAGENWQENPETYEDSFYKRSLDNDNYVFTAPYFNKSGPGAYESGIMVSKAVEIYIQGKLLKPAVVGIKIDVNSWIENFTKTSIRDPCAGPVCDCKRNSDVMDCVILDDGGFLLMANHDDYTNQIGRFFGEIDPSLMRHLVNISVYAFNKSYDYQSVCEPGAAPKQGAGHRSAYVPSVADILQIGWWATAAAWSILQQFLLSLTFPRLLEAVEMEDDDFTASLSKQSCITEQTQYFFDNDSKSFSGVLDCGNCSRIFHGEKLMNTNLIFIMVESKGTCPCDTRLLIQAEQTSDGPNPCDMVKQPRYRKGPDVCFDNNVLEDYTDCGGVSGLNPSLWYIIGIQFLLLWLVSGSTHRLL

Query: For Human α2δ-1 subunit of Cav2.2 calcium channel (Homo sapiens, UniProt P54289), provide Ki of Cc1nn2c(C3CCCN(Cc4ccc(Cl)cc4)C3)ccnc2c1-c1ccnc(CO)c1 (centres unmarked) please.
Reply: > 5000 nM

Continuing:
Query: # get_value(readout= Ki, system= Human α2δ-1 subunit of Cav2.2 calcium channel (Homo sapiens, UniProt P54289)) for Clc1ccc(CN2CCCC(c3ccnc4c(CNCC5CCOCC5)c(Br)nn34)C2)cc1 (centres unmarked)
Reply: < 500 nM

---

target: Human α2δ-1 subunit of Cav2.2 calcium channel (Homo sapiens); assay: Human α2δ-1 subunit of Cav2.2 calcium channel assay ([3H]-gabapentin binding); details: binding to the α2δ-1 subunit of voltage-gated calcium channels expressed as Ki; + also covers inhibition between 1% and 50%
pKi: −log10 of the molar value.
quantity: pKi

Query: Name the reported pKi value associated with the compound Cc1cnc2c(-c3ccncc3)c(C)nn2c1C1CCCN(Cc2ccccc2)C1 (centres unmarked)
Reply: 5.30 to 6.30

Query: // next record Cc1nn2c(C3CCCN(Cc4ccccc4)C3)ccnc2c1-c1ccccc1 (centres unmarked)
Reply: < 5.30

Query: What do we get for Cc1nn2c(C3CCCN(Cc4cccc(Cl)c4)C3)ccnc2c1-c1ccncc1 (centres unmarked) ?
Reply: 5.30 to 6.30

Query: Moving on to Cc1nn2c(CC3CCCN(Cc4ccc(Cl)cc4)C3)ccnc2c1CN(C)C (centres unmarked)
Reply: < 5.30

---

Here the recorded pKi is given for each entry.
molecular target: Human α2δ-1 subunit of Cav2.2 calcium channel (Homo sapiens); assay: Human α2δ-1 subunit of Cav2.2 calcium channel assay ([3H]-gabapentin binding); details: binding to the α2δ-1 subunit of voltage-gated calcium channels expressed as Ki; + also covers inhibition between 1% and 50%
pKi: −log10 of the molar value.

Before answering, review these 2 worked examples.
Query: Item: c1ccc(CN2CCCC(c3ccnc4cc(-c5ccccn5)nn34)C2)cc1 (stereo not drawn) Test system: Human α2δ-1 subunit of Cav2.2 calcium channel (Homo sapiens) Read-out: pKi Value: ?
Reply: > 6.30

Query: Also Brc1cc2nccc(C3CCCN(Cc4ccccc4)C3)n2n1 (stereo not drawn) ?
Reply: 5.30 to 6.30

Others:
Query: Query pKi on Human α2δ-1 subunit of Cav2.2 calcium channel (Homo sapiens) for COc1ncccc1-c1cc2nccc(C3CCCN(Cc4ccc(Cl)c(Cl)c4)C3)n2n1 (stereo not drawn)
Reply: < 5.30

Query: What do you have for Cc1nn2c(C3CCCN(Cc4cccc(F)c4)C3)ccnc2c1CNCC1CCOCC1 (stereo not drawn) ?
Reply: 5.30 to 6.30

Query: Entry CC(=O)N1CCN(Cc2c(C)nn3c(C4CCCN(Cc5ccc(Cl)cc5)C4)ccnc23)CC1 (stereo not drawn) please
Reply: 5.30 to 6.30

Query: Next compound: COc1cccc(-c2cc3nccc(C4CCCN(Cc5ccccc5)C4)n3n2)n1 (stereo not drawn)
Reply: < 5.30

Query: Now consider COc1cnccc1-c1c(C)nn2c(C3CCCN(Cc4ccccc4)C3)ccnc12 (stereo not drawn) and answer again.
Reply: 5.30 to 6.30

Query: Cool, now c1ccc(CN2CCCC(c3ccnc4cc(N5CCCC5)nn34)C2)cc1 (stereo not drawn)
Reply: < 5.30

Query: Next record, please: Cc1nn2c([C@H]3CCCN(Cc4cc(F)cc(F)c4)C3)ccnc2c1CNCC1CCOCC1
Reply: < 5.30

Query: What do you get for CCCN1CCCC(c2ccnc3c(-c4ccncc4)c(C)nn23)C1 (stereo not drawn) ?
Reply: < 5.30

Query: Consider next the compound Cc1nn2c([C@@H]3CCCN(Cc4ccc(Cl)cc4)C3)ccnc2c1CN[C@H](C)c1ccccc1 in the same way.
Reply: 5.30 to 6.30

---

target: Human α2δ-1 subunit of Cav2.2 calcium channel (Homo sapiens); test: Human α2δ-1 subunit of Cav2.2 calcium channel assay ([3H]-gabapentin binding); settings: binding to the α2δ-1 subunit of voltage-gated calcium channels expressed as Ki; + also covers inhibition between 1% and 50%
pKi: −log10 of the molar value.
quantity: pKi

Query: Would you mind telling me what pKi value was observed for CN(CCO)c1cc2nccc(C3CCCN(Cc4ccccc4)C3)n2n1 (stereo not drawn) ?
Reply: < 5.30

Query: And Cc1nn2c(C3CCCN(Cc4ccccc4)C3)ccnc2c1CN (stereo not drawn) ?
Reply: 5.30 to 6.30

Query: Same for COc1cncc(-c2cc3nccc(C4CCCN(Cc5ccccc5)C4)n3n2)c1 (stereo not drawn)
Reply: 5.30 to 6.30

Query: Moving on to the next compound: CNCc1cc2nccc(C3CCCN(Cc4ccccc4)C3)n2n1 (stereo not drawn)
Reply: 5.30 to 6.30

Let's switch to this compound now.
Query: Look up pKi for this compound: Cc1cc2nccc(C3CCCN(Cc4ccccc4F)C3)n2n1 (stereo not drawn)
Reply: < 5.30

---

molecular target: Human α2δ-1 subunit of Cav2.2 calcium channel (Homo sapiens); experiment: Human α2δ-1 subunit of Cav2.2 calcium channel assay ([3H]-gabapentin binding); conditions: binding to the α2δ-1 subunit of voltage-gated calcium channels expressed as Ki; + also covers inhibition between 1% and 50%
pKi: −log10 of the molar value.
quantity: pKi

Recorded pKi, per entry:
Query: Look at this compound and give its reported pKi. Cc1nn2c(C3CCCN(Cc4ccc(C#N)cc4)C3)ccnc2c1CNCC1CCOCC1 (stereo not drawn) [Example 183]
Reply: < 5.30

Query: Likewise for Cc1nn2c(C3CCCN(Cc4ccccc4)C3)ccnc2c1-c1ccnc(C(F)(F)F)c1 (stereo not drawn) [Example 53] ?
Reply: 5.30 to 6.30

Others:
Query: What pKi value was documented for this compound, Cc1nn2c(C3CCCN(Cc4ccc(Cl)cc4)C3)ccnc2c1CNCc1ccc(F)cc1 (stereo not drawn) [Example 146] ?
Reply: 5.30 to 6.30

Query: Another compound to look at: Cc1nn2c([C@@H]3CCCN(Cc4ccc(Cl)cc4)C3)ccnc2c1CN[C@H](C)C1CCOCC1 (racemic) [Example 224]
Reply: 5.30 to 6.30

Query: Here is the next compound: COc1ccc(CN2CCCC(c3ccnc4c(CNCC5CCOCC5)c(C)nn34)C2)cc1 (stereo not drawn) [Example 242]
Reply: < 5.30

Query: Would you kindly repeat that for CNCc1c(C)nn2c(C3CCCN(Cc4ccccc4)C3)ccnc12 (stereo not drawn) [Example 96] ?
Reply: 5.30 to 6.30

---

Listing: Ki of selected compounds
biological target: Human α2δ-1 subunit of Cav2.2 calcium channel (Homo sapiens, UniProt P54289); experiment: Human α2δ-1 subunit of Cav2.2 calcium channel assay ([3H]-gabapentin binding); conditions: binding to the α2δ-1 subunit of voltage-gated calcium channels expressed as Ki; + also covers inhibition between 1% and 50%

Consider the worked cases shown below.
Query: // query Ki value for entry Cc1nn2c(C3CCCN(Cc4ccc(Cl)cc4)C3)ccnc2c1CNCCC1CCOCC1 (centres unmarked)
Reply: 0.5 to 5 µM

Query: Query Cc1nn2c([C@@H]3CCCN(Cc4ccc(Cl)cc4)C3)ccnc2c1CN[C@@H](C)c1ccccc1 next
Reply: 0.5 to 5 µM

Query: Same lookup for Cc1nn2c(C3CCCN(Cc4ccc(Cl)cc4)C3)ccnc2c1-c1ccnc(OCC2CC2)c1 (centres unmarked) , please.
Reply: > 5 µM

Query: Try this compound too: Cc1nn2c(C3CCCN(Cc4ccc(Cl)cc4Cl)C3)ccnc2c1CN(C)C (centres unmarked)
Reply: > 5 µM

Query: # iterate: Cc1cnc2c(-c3ccncc3)cnn2c1C1CCCN(Cc2ccccc2)C1 (centres unmarked)
Reply: 0.5 to 5 µM

Query: Same for Cc1nn2c(C3CCCN(Cc4ccc(Cl)cc4)C3)ccnc2c1CN (centres unmarked)
Reply: 0.5 to 5 µM

Query: What do we get for Clc1ccc(CN2CCCC(c3ccnc4c(CNCC5CCOCC5)c(C5CC5)nn34)C2)cc1 (centres unmarked) ?
Reply: < 0.5 µM

Query: Also need Cc1cc(C2CCCN(Cc3ccc(Cl)cc3)C2)n2nc(C)c(CNCC3CCOCC3)c2n1 (centres unmarked) , thanks.
Reply: 0.5 to 5 µM

***
Query: So what does the record say about Ki for Cc1nn2c(C3CCCN(Cc4ccccn4)C3)ccnc2c1-c1ccncc1 (centres unmarked) ?
Reply: 0.5 to 5 µM

Query: Entry to check: CCNCc1c(C)nn2c(C3CCCN(Cc4ccc(Cl)cc4)C3)ccnc12 (centres unmarked)
Reply: 0.5 to 5 µM

Query: Also need c1ccc(CN2CCCC(c3ccnc4cc(-c5cccnc5)nn34)C2)cc1 (centres unmarked) , thanks.
Reply: 0.5 to 5 µM

Query: Same question, Cc1nn2c(C3CCCN(CC4CCOCC4)C3)ccnc2c1CNCC1CCOCC1 (centres unmarked) this time
Reply: > 5 µM

Query: Next: COc1ccncc1-c1cc2nccc(C3CCCN(Cc4ccccc4)C3)n2n1 (centres unmarked)
Reply: 0.5 to 5 µM

Query: Quick one: CNCc1c(C)nn2c([C@@H]3CCCN(Cc4ccc(Cl)cc4)C3)ccnc12
Reply: > 5 µM

Query: Then what about the compound Cc1nn2c([C@H]3CCCN(Cc4ccccc4)C3)ccnc2c1CNCC1CCOCC1 ?
Reply: 0.5 to 5 µM

Query: Could you do the same for Cc1nn2c(C3CCCN(Cc4ccccc4)C3)ccnc2c1Br (centres unmarked) , please?
Reply: 0.5 to 5 µM

Query: And what about the compound Cc1cc2nccc(C3CCCN(Cc4cccc(O)c4)C3)n2n1 (centres unmarked) ?
Reply: > 5 µM

Query: Same read-out for Cc1noc(C)c1-c1c(C)nn2c(C3CCCN(Cc4ccc(Cl)cc4)C3)ccnc12 (centres unmarked) ?
Reply: > 5 µM

Query: Likewise for Cc1nn2c(C3CCCN(Cc4ccc(Cl)cc4)C3)ccnc2c1CNCc1cccs1 (centres unmarked) ?
Reply: 0.5 to 5 µM

Query: Now give it for Cc1nn2c(C3CCCN(Cc4ccc(Cl)cc4)C3)ccnc2c1-c1ccc(CO)nc1 (centres unmarked) too.
Reply: > 5 µM

Query: Then what about the compound Cc1nn2c(C3CCCN(Cc4ccc(Cl)cc4)C3)ccnc2c1CNCc1ccn(C)n1 (centres unmarked) ?
Reply: 0.5 to 5 µM

Query: And the next one, Cc1cnc2c(Br)c(C)nn2c1C1CCCN(Cc2ccccc2)C1 (centres unmarked) ?
Reply: 0.5 to 5 µM

Query: Also, Cc1nn2c(C3CCCN(Cc4ccc(Cl)cc4)C3)ccnc2c1CNCCc1ccccc1 (centres unmarked) please.
Reply: 0.5 to 5 µM
